Data provenance: patent USRE46585

assayed_target: T1, recombinant soluble human FcRn (human, UniProt P55899 24-297; P61769 21-119)
T1 construct: amine-coupled to the SPR chip
T1 sequence (P55899 24-297, chain 1 of 2): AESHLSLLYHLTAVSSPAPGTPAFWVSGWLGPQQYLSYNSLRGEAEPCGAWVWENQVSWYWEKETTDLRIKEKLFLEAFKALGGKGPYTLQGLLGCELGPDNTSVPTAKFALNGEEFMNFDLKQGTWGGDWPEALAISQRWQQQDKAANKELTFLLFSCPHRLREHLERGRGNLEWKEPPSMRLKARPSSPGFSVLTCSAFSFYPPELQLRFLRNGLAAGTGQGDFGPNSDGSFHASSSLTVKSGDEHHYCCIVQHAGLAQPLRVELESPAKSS
T1 sequence (P61769 21-119, chain 2 of 2): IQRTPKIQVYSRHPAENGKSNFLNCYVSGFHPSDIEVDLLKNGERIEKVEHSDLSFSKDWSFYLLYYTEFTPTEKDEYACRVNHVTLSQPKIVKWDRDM
protocol_text: SPR pH6, immobilized FcRn, steady state
outcome_measure: Kd (nM)

[[record]]
binder = "C6A_72 (soluble recombinant Fc polypeptide) (other, EU numbering; E. coli periplasmic expression; not shown: C-terminal 6xHis tag and V5 tag) CPPCPAPELLGGPSVFLFPPKPKDALMISRTPEVTCVVVDVSHEDPEVKFNWYVDGVEVHNAKTKPREEQYNSTYRVVSVLTVLHQDWLNGKEYKCKVSNKALPAPIEKTISKAKGQPREPQVYTLPPSRDELTKNQVSLTCLVKGFYPSDIAVEWESNGQPEKNYKTTPPVLDSDGSFFLYSKLTVDKSRWQQGNVFSCSVMHEALHYHYTQKSLSLSPGK"
outcome_measure = "Kd"
unit_name = "nM"
numeric_readout = 12.4

[[record]]
binder = "C6A_74 (soluble recombinant Fc polypeptide) (other, EU numbering; E. coli periplasmic expression; not shown: C-terminal 6xHis tag and V5 tag) CPPCPAPELLGGPSVFLFPPKPKDTLMISRTPEITCVVVDVSHEDPEVKFNWYVDGVEVHNAKTKPREEQYNSTYRVVSVLTVLHQDWLDGKEYKCKVSNKALPAPIEKTISKAKGQPREPQVYTLPPSRDELTKNQVSLTCLVKGFYPSDIAVEWESNGQPENNYKTTPPVLDSDGSFFLYSKLTVDKSRWQQGNVFSCSVMHEALHYHYTQKSLSLSPGK"
outcome_measure = "Kd"
unit_name = "nM"
numeric_readout = 5.9

[[record]]
binder = "T5A_78 (soluble recombinant Fc polypeptide) (other, EU numbering; E. coli periplasmic expression; not shown: C-terminal 6xHis tag and V5 tag) CPPCPAPELLGGPSVFLFPPKPKDTLMISRTPEVTCVVEDVSHEDPEVKFNWYVDGVEVHNAKTKPREEQYNSTYRVVSVLTVLHQDWLNGKEYKCKVSNKALPAPIEKTISKAKGQPREPQVYTLPPSRDELTKNQVSLTCLVKGFYPSDIAVEWESNGRPENNYKTTPLVLDSDGSFFLYSKLTVDKSRWQQGNVFSCSVMHEALHSHYTQRSLSLSPGK"
outcome_measure = "Kd"
unit_name = "nM"
numeric_readout = 12.4

